Data provenance: PubChem BioAssay

Listing of entries alongside the reported inhibition.
Test: TLR3 IRF3 reporter activation blockers – cell-based, poly I:C stimulus, luciferase, 10K MLSCN set, primary screen (AID 602277)
Details: HEK293-TLR3 RL24 IRF3 luciferase reporter, at 10 µM, hits give high values

# compound, inhibition, %
records = [
    ("Cc1cnc(C(=O)Nc2ccccc2-n2cccc2)cn1", 0.535),
    ("COC(=O)c1[nH]c2ccc(C)cc2c1NC(=O)CN1CCN(C(=O)c2ccccc2)CC1", 14.6),
    ("C=CCSc1nnc(-c2cccnc2)o1", -8.9),
    ("Cn1c(SCC(=O)c2ccc(-c3ccccc3)cc2)nnc1-c1ccco1", 1.41),
    ("CCC1c2ccc(C)n2CCN1C(=O)Nc1ccccc1OC (configuration not stated)", 3.42),
    ("O=C1C2C3C=CC(C3)C2C(=O)N1Cc1ccccc1 (configuration not stated)", -2.25),
    ("Cc1oc2c(CN3CCCC3)c(O)ccc2c(=O)c1-c1ccccc1", 24.5),
    ("CCCC(=O)Nc1ccc(NC(=O)c2ccccc2OC)cn1", -1.09),
    ("Cc1nn(-c2nc3ccccc3s2)c(C)c1Oc1ccccc1O", -97.7),
    ("CSc1nnc(-c2cnccn2)n1Cc1ccccc1", 2.59),
    ("O=C1CCC(=O)N1OCCCOc1ccc(Br)cc1Cl", 18),
    ("CC1(C)CC(=O)c2c(O)cc(O)cc2O1", -1.77),
]
